target: ALK tyrosine kinase receptor (Homo sapiens, UniProt Q9UM73); assay: Inhibition of ALK by time-resolved fluorescence assay
Sequence (Q9UM73 whole entry): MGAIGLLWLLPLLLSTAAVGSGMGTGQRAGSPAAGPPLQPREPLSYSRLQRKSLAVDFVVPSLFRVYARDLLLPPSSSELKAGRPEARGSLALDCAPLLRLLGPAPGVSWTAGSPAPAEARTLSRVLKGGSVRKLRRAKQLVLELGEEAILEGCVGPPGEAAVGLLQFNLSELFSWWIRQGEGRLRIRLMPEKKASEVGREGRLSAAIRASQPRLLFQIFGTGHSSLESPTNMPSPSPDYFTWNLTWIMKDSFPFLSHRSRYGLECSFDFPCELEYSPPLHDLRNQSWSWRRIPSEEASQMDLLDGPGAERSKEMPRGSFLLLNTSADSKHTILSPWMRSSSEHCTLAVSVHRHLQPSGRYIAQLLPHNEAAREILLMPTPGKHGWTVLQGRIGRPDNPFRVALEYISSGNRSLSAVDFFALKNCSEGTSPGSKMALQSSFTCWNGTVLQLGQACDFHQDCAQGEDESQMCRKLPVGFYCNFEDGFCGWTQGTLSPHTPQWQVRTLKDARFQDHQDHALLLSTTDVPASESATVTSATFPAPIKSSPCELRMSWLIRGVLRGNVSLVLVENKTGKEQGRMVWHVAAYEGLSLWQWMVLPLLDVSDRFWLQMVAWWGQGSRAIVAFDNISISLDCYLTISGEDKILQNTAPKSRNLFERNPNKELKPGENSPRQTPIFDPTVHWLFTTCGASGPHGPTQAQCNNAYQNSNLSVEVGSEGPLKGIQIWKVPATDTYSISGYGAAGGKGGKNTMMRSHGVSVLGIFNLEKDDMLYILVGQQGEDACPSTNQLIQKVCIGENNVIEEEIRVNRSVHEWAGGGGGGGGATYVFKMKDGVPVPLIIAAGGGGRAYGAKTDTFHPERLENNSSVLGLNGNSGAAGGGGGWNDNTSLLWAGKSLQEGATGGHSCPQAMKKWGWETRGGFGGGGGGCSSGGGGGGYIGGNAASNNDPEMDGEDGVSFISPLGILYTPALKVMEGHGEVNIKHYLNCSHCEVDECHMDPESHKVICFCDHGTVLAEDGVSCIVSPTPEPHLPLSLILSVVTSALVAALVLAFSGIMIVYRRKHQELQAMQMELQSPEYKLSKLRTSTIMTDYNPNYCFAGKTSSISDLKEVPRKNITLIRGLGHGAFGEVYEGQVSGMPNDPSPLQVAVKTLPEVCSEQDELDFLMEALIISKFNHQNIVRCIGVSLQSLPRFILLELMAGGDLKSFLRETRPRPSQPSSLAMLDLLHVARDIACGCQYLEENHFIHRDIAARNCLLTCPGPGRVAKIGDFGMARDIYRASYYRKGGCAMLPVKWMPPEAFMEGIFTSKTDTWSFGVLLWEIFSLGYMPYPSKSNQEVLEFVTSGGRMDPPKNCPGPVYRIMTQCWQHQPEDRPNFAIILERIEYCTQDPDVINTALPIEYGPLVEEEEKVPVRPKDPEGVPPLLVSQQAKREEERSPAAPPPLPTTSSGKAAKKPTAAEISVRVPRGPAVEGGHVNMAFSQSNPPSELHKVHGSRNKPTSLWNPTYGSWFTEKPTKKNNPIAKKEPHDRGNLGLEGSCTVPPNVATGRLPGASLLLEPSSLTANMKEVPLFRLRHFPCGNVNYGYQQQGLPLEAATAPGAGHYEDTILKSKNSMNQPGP
compounds and their reported pIC50
Would you please state pIC50, meaning minus log10 of the concentration in mol/L, as a bare number?

Query block: What reported pIC50 corresponds to CN1CCN(c2ccc(-c3cnc4c(c3)N(Cc3cc(F)ccc3F)CCN4)cn2)CC1 on ALK tyrosine kinase receptor (Homo sapiens, UniProt Q9UM73)?
Result block: 7.48

Further cases:
Query block: Checklist item: pIC50 tested on ALK tyrosine kinase receptor (Homo sapiens, UniProt Q9UM73), entry CC(=O)N1CCN(c2cc(-c3cnc4c(c3)N(Cc3cc(Cl)ccc3C(F)(F)F)CCN4)ccn2)CC1 , value?
Result block: 7.77

Query block: Item O=C(c1ccc(-c2cnc3c(c2)N(Cc2cc(Cl)ccc2C(F)(F)F)CCN3)cc1)N1CCC(N2CCCC2)CC1 with ALK tyrosine kinase receptor (Homo sapiens, UniProt Q9UM73) - pIC50?
Result block: 8.00
